All figures here come from the supplement of paper PMC6555819.

test system: FXR:RXRa (NR concentration 270 nM, RXRa partner concentration 90 nM); assay: PBM binding z-score (relative to random genomic background probes); higher = stronger binding; sequences stand for … in GC…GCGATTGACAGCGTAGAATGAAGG
Class (by PBM binding z-score) -- category 1: < 0.2; category 2: ≥ 0.2 and < 2; category 3: ≥ 2

| chain | classification |
| --- | --- |
| TAATATAGGTAATACAGGTGAAAGTCGGCATCTA | category 2 |

Exercise: # bin lookup: classify GCATATAGGTATTACAAGGTGAAAGTCCGATTGT by its PBM binding z-score
Solution: category 2

Exercise: # bin lookup: classify CGAACTAGGTCATTGAAAGGACAGTGAATAGTAA by its PBM binding z-score
Solution: category 3

Exercise: # bin lookup: classify TCGAGTAGGTTAGGGTCATTCAGAATGGCGTCGA by its PBM binding z-score
Solution: category 3

Exercise: # bin lookup: classify CCTGCTAGGTCAATGGTCAGCTACAGCAGCTCGC by its PBM binding z-score
Solution: category 3

Exercise: # bin lookup: classify TCATATCGGTAAAGGTGAAAGTCGAACGATATGA by its PBM binding z-score
Solution: category 1

Exercise: # bin lookup: classify TCTGTTAGTTGAAGGGCAACCGACGAGTCCGTTT by its PBM binding z-score
Solution: category 2

====

system: RXRa homodimer (NR concentration 180 nM); assay: PBM binding z-score (relative to random genomic background probes); higher = stronger binding; sequences stand for … in GC…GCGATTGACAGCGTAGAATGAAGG
PBM binding z-score listing for selected sequences.
// return just the number, without any unit appended

| chain | readout_value |
| --- | --- |
| TCGAGTAGATTAGTCGGGGCATTCAGCCAACATA | -0.393 |
| CATACAGGGTCAGCAAGGCCAGAGTAGGGACGGC | 4.64 |
| TCTTGTAGATCAAGAGAGGTTAAGAAAGTGCGCT | 1.21 |
| ATCTCTAGGTAAGGATAGTTCAGTGAATGCAAAT | -0.127 |
| ATCGAAAGGTCGACGAGGTGACTATACACCGTTT | 5.08 |

Exercise: Lab request: please report PBM binding z-score under test system RXRa homodimer (NR concentration 180 nM) for ATCGAAAGGTCGAGGTGAGTACAGAGAAAGGGAA
Solution: 3.89

Exercise: Lab request: please report PBM binding z-score under test system RXRa homodimer (NR concentration 180 nM) for TATACAGGGTCAAAGGCCAGTGTACGAATGTCGA
Solution: 7.04

Exercise: Lab request: please report PBM binding z-score under test system RXRa homodimer (NR concentration 180 nM) for GCAGACAGGTGAAACGCAGGTGACTCAGGGTGGC
Solution: 0.927

Exercise: Lab request: please report PBM binding z-score under test system RXRa homodimer (NR concentration 180 nM) for TTACCAAGGTGAGCTGACGTCGTTGATCCAACTC
Solution: 0.32

Exercise: Lab request: please report PBM binding z-score under test system RXRa homodimer (NR concentration 180 nM) for TCTGCTGGGTCAGTTGGTCAGCTAACGAGCTGCC
Solution: 1.06

====

test system: LXRb:RXRa (NR concentration 270 nM, RXRa partner concentration 90 nM); assay: PBM binding z-score (relative to random genomic background probes); higher = stronger binding; sequences stand for … in GC…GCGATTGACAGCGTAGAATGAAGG
attribute_measured: PBM binding z-score
// return just the number, without any unit appended

For orientation, consider the following solved cases.
| chain | PBM binding z-score |
| --- | --- |
| CTACCAAGGTGAACCAGGTCGTTGATTACTATTC | 1.8 |
| TCGACTAGGTTAGGGGCATTCAGAATGGCGTCGA | 0.803 |
| CCTAGGTGGTCAGGAGGTCACACACCGGATATGA | 3.05 |
| CGTCCAAGGTCAAGGTCAGTGAAAGAGACTCGAA | 4.51 |
| CCTTACGGGTCACGCGGTTATAGCACGACGAGCG | 3.64 |

Exercise: Lab request: please report PBM binding z-score under test system LXRb:RXRa (NR concentration 270 nM, RXRa partner concentration 90 nM) for TCATATATGTAAAAGGTGAAAGTCGGTGTGGTAA
Solution: 1.75

Exercise: Lab request: please report PBM binding z-score under test system LXRb:RXRa (NR concentration 270 nM, RXRa partner concentration 90 nM) for CCTAGTTGTTCAAGGTCACACACGCTATAGGTAC
Solution: 4.17

Exercise: Lab request: please report PBM binding z-score under test system LXRb:RXRa (NR concentration 270 nM, RXRa partner concentration 90 nM) for ATCGAAAGGCCGACGAGGTGAGTATACACCGTTT
Solution: -0.439

Exercise: Lab request: please report PBM binding z-score under test system LXRb:RXRa (NR concentration 270 nM, RXRa partner concentration 90 nM) for CGTCCAAGGTCAATGCTAGGTCAATGAAAGCATT
Solution: 4.64

Exercise: Lab request: please report PBM binding z-score under test system LXRb:RXRa (NR concentration 270 nM, RXRa partner concentration 90 nM) for CAAACTAGGTCACCGGAAGGACAAAGTCCGCATG
Solution: 2.71

Exercise: Lab request: please report PBM binding z-score under test system LXRb:RXRa (NR concentration 270 nM, RXRa partner concentration 90 nM) for GCTAGTTGGTCAGCAAAAGGTCACACACCGGTCG
Solution: 3.94

Exercise: Lab request: please report PBM binding z-score under test system LXRb:RXRa (NR concentration 270 nM, RXRa partner concentration 90 nM) for TAGCCTTGGTCAGATCGGGCCAGTATACGCTATA
Solution: -0.995
